Attribution: ChEMBL document CHEMBL4513216

- Tested on: Plasmodium berghei
- procedure-summary: Screen against P. berghei liver stage (PbLuc), transformed with Luciferase, at 10uM
- Assay type: functional, HepG2
- condition: tested at 10 uM
The whole screen tested about 69,000 compounds, of which about 8,600 (12%) showed an effect of 50% or more. The sample holds strong results, similar compounds and a random draw of the others, so the mix is not that of the screen.

{"columns": ["molecule", "INHIBITION [%]"],
 "data": [
  ["Cc1c(NC(=O)c2ccc(Br)cc2)c(C(=O)N(C)C)nn1C", 17.6],
  ["COCCCN1CCCC1c1noc(C2CC2)n1 (configuration not stated)", 2.97],
  ["Cc1nc(C)n(CC2CN(Cc3ccccc3C#N)CCO2)n1 (configuration not stated)", 5.9],
  ["CCCc1nc(N2CCCC3(CCNC3)C2)c2cnn(C)c2n1 (configuration not stated)", 47.1],
  ["CCn1nc(CNC(C)(C)CO)c(-c2ccccc2)n1", 20.9],
  ["CN(C)[C@@H]1CN(Cc2ccco2)C[C@@H]2CCCO[C@@H]21", -2.27],
  ["Cn1cc(CN2CCc3nc(-c4ccccn4)nc(O)c3C2)cn1", 52.3],
  ["COCc1nc(N2CC[C@H](N(C)C)C2)c2cnn(C)c2n1", -15.8],
  ["Cc1cnn(CC2CCCCN2CCCS(=O)(=O)N(C)C)c1 (configuration not stated)", 13.3],
  ["O=C(COCc1ccccc1)NCc1ccc(O)c(F)c1", -7.93],
  ["CN(CCCNC(=O)C1CCc2cn[nH]c2C1)c1ccc(F)cc1 (configuration not stated)", 31.2],
  ["Cc1noc(-c2ccnc(N3CCN(C4CCOCC4)CC3)c2)n1", 10.7],
  ["Cc1ccc(C(=O)Nc2c(C(=O)N(C)C)nn(C)c2C)cc1", -10.6],
  ["CCOC[C@]12COC[C@H]1CN(Cc1ccc3c(c1)OCO3)C2", 38.5],
  ["Cc1ccc2cc(C(=O)N3CCCC3Cn3cccn3)[nH]c2c1 (configuration not stated)", -167],
  ["COc1cccc(C2CCN2C(=O)c2cc(C(C)C)on2)c1 (configuration not stated)", 55.5],
  ["O=C(c1cccnc1)N(Cc1ccncc1)C1CC1", 14.8],
  ["N#Cc1cccc(OCC(=O)N(Cc2ccsc2)C2CC2)c1", 54.5],
  ["Cc1nc(-c2ccnc(N3CCNCC3)n2)no1", -17],
  ["Cc1ccncc1C(=O)N1C[C@@H]2CN(c3ncccn3)C[C@]2(C(=O)O)C1", 7.65],
  ["COc1ccc(C2CCCN2C(=O)c2cc(C(C)C)on2)cc1 (configuration not stated)", -75.1],
  ["Cc1ccc(NC2CCN(C(=O)c3ccc4c(c3)CCC4)CC2)nn1", 18.2],
  ["CO[C@H]1CN(C(=O)c2ccc[nH]2)[C@@H]2COC[C@H]12", -29],
  ["COCC1CCN(c2nc(C(C)(C)C)nc3c2cnn3C)C1 (configuration not stated)", 50.1],
  ["CC(C)(C)c1nc(C(C)(C)NC(=O)C2CC(=O)N(CC3CC3)C2)no1 (configuration not stated)", -17.6],
  ["O=C(c1cccnc1N1CCOCC1)N1CCCC(n2cccn2)C1 (configuration not stated)", -62.365],
  ["Cc1noc(CNC(=O)N2CCN(c3nc(C)c(C)s3)CC2)n1", 10.5],
  ["Cc1nc2c(C)cccc2cc1C(=O)N1CCC2(CCN(C)CC2)C1", -17.7],
  ["CN(C)C(=O)CCCS(=O)(=O)Cc1cc(Cl)c2c(c1)OCO2", 30.6],
  ["Cc1nc(CSCCC(=O)Nc2cccc(N3CCNC3=O)c2)cs1", -24.6],
  ["CCC1(O)CCCN(c2nc(C(C)(C)C)nc3c2cnn3C)C1 (configuration not stated)", 48],
  ["O=C(COc1ccccc1)N(Cc1ccncc1)C1CC1", 61.9],
  ["NC(=O)c1ccccc1Oc1cccc(C2CCCNC2)n1 (configuration not stated)", -13.2],
  ["CN(CCCNC(=O)C1CCc2cn[nH]c2C1)c1ccccc1 (configuration not stated)", 24.3],
  ["Cc1cc(C(=O)Nc2ccc(OCCN3CCN(C)CC3)cc2)[nH]n1", -49.9],
  ["Cc1noc(C)c1CN(C)C(=O)COc1cccc(C#N)c1", 8.08],
  ["Cc1noc(-c2ccnc(N3CCC(CN4CCOCC4)CC3)c2)n1", 69.4],
  ["Cn1ncc2c(N3CCC(CCO)CC3)nc(C(C)(C)C)nc21", 22.9],
  ["O=C(c1cnc(O)cn1)N1CCCC1c1nc2cc(F)ccc2[nH]1 (configuration not stated)", 17.5],
  ["N#Cc1ccc(C(=O)N(Cc2ccncc2)C2CC2)cc1", -19.4],
  ["O=C(c1csc(-c2ccc(C(F)(F)F)cc2)n1)N1CCCNCC1", 62.1],
  ["CN(C(=O)CCc1ccncc1)C1CCCN(CCc2ccccc2)C1 (configuration not stated)", -8.07],
  ["CC(=O)NCCC1CCN(c2nc(C(C)(C)C)nc3c2cnn3C)CC1", 64.9],
  ["CCCc1ccc(OCCNCc2ccco2)c(OC)c1", 1.71],
  ["O=C(Cc1cccnc1)N1CCCC2(CCN(CC3CCOCC3)C2)C1 (configuration not stated)", 18.5],
  ["c1cncc(CN2CCOC(c3ncn4c(C5CC5)cccc34)C2)c1 (configuration not stated)", 14.2],
  ["Cn1cc(CN2CCc3c(nc(-c4ccccn4)[nH]c3=O)C2)cn1", 26.7]
]}
